Data credit: PubChem BioAssay (NCI)

System: DMS 114 small cell lung
Assay: NCI tumour cell line growth inhibition, 48 h
metric_name: TGI (µM)
Give bare numbers, in µM.

Hi, could you look up TGI for each item in my list?
1. Cc1cc(C)nc(NS(=O)(=O)c2ccc(Nc3c4ccc(Cl)cc4nc4c(C(=O)Nc5ccc(S(N)(=O)=O)cc5)cccc34)cc2)n1
2. CCCCCCCCCCCC1CCCC(C)N1 (stereo not given)

1. 65
2. 139

* * *

Test system: MALME-3M melanoma
Experiment: NCI tumour cell line growth inhibition, 48 h
metric_name: TGI

Please review the following examples before continuing.
Any idea what TGI came out for C#CC1(O)C(COP(=O)(O)OCC2OC(n3ccc(NCCCCCCCCCCCCCCCCCC)nc3=O)C(O)C2O)OC(n2ccc(N)nc2=O)C1O (stereo not given) on MALME-3M melanoma?
11 µM

Any idea what TGI came out for CCOC(=O)C(O)(NC(=O)c1ccccc1F)C(F)(F)F (stereo not given) on MALME-3M melanoma?
> 100 µM

Hi, could you look up TGI for each item in my list?
1. COc1cc2c3c(n(CCCI)c(=O)c2cc1OC)-c1cc2c(cc1C3=O)OCO2
2. COc1ccc(Nc2c3ccccc3nc3ccccc23)cc1

1. 54.6 µM
2. 9.05 µM

* * *

Give TGI for every item shown.
Test system: SNB-75 CNS
Test: NCI tumour cell line growth inhibition, 48 h
One number for each entry, in µM.

Please review the following examples before continuing.
Any idea what TGI came out for CCOC(=O)C(=Cc1ccc(Oc2ccccc2)cc1)C(=O)OCC on SNB-75 CNS?
11

Any idea what TGI came out for Cc1ccc(OC2CC(n3cnc4ncnc(Cl)c43)OC2Oc2ccc(C)cc2)cc1 (stereo unspecified) on SNB-75 CNS?
69.1

Any idea what TGI came out for N=C(N)SCc1ccc(Cl)cc1Cl (tested in a mixture with another compound) on SNB-75 CNS?
30.9

Any idea what TGI came out for O=C(/C=C/c1ccc(O)c(O)c1)c1cc(O)cc(O)c1 on SNB-75 CNS?
34.5

Any idea what TGI came out for O=C1/C(=C/c2ccccc2O)N=C(c2ccccc2)N1c1nc2ccccc2s1 on SNB-75 CNS?
98.2

Turning now to a further molecule:
Any idea what TGI came out for COC(=O)c1ccc(C)cc1/C=C1\Cc2ccc(C)cc2C1=O on SNB-75 CNS?
44

* * *

System: SK-OV-3 ovarian
Test: NCI tumour cell line growth inhibition, 48 h; in the data active = GI50 below about 0.43 µM; inactive = the rest
Valid outcomes are listed here; reply with one: active, inactive

// param item: CC(=Nc1ccccc1)C1=C(O)C(Cc2ccccc2)NC1=O (stereo not given) ; yields the recorded call
active

Further cases:
// param item: NC(=O)c1cc(-c2ccc(F)cc2)cc(-c2ccncc2)c1N ; yields the recorded call
inactive

// param item: COc1cc(C2=C(C#Cc3ccccc3)COC2=O)cc(OC)c1OC ; yields the recorded call
inactive

* * *

Test system: HOP-92 NSCLC
Test: NCI tumour cell line growth inhibition, 48 h
metric_name: TGI

Please review the following examples before continuing.
Dear colleague, I am looking for the recorded TGI of the following molecule: O=C(CCC(=O)C(C(=O)c1ccccc1)c1ccccc1)Nc1cccc(C(F)(F)F)c1 (centres undefined)
> 100 µM

Dear colleague, I am looking for the recorded TGI of the following molecule: COc1cc(/C=C/C(=O)c2c(C)nc3ccccc3c2C)ccc1OCCCOc1cc2c(cc1OC)C(=O)N1CCC[C@H]1C=N2
0.275 µM

Dear colleague, I am looking for the recorded TGI of the following molecule: COc1cc(COC(=O)N(CC(=O)O)c2ccccc2)c([N+](=O)[O-])cc1OC
> 100 µM

Dear colleague, I am looking for the recorded TGI of the following molecule: CCc1cccc(C(C)C)c1NC(=O)C(=O)C(CC(=O)Nc1ccc(Cl)c(Cl)c1)C(=O)OC (centres undefined)
> 100 µM

Hi, could you look up TGI for each item in my list?
1. C1CCN(c2nc(=[N+]3CCCCC3)ss2)CC1
2. CC(=O)O[C@]1(C(C)=O)CC[C@H]2[C@@H]3C=C(C)C4=CC(=O)CC[C@]4(C)[C@H]3CC[C@@]21C
3. O=c1[nH]c(Nc2cc(Cl)cc(Cl)c2)nc2nc[nH]c12
4. CCNC(=O)c1cc2c(-c3cc(C(C)(C)O)ccc3Oc3c(C)cc(F)cc3C)cn(C)c(=O)c2[nH]1
5. CC1(Cl)CCC2(CC(Br)=CC3OC32C)CC1Br (centres undefined)

["> 100 µM", "> 100 µM", "> 75 µM", "10.9 µM", "78.8 µM"]

* * *

Tested on: HS 578T breast
Assay: NCI tumour cell line growth inhibition, 48 h
metric_name: TGI

Please review the following examples before continuing.
Dear colleague, I am looking for the recorded TGI of the following molecule: Cc1c(COc2cc(OCc3cccc(C#N)c3)c(CN3C[C@H](O)C[C@@H]3C(=O)O)cc2Cl)cccc1-c1ccc2c(c1)OCCO2
53.1 µM

Dear colleague, I am looking for the recorded TGI of the following molecule: O=C1[C@@H]2[C@@H](c3ccccc3)[C@]2(Cl)C(=O)[C@H]2[C@H](c3ccccc3)[C@@]12Cl
> 100 µM

Dear colleague, I am looking for the recorded TGI of the following molecule: CC(C)C1=CCC2C(=C1)CCC1C(C)(C(=O)O)CCCC21C (stereo not drawn) (tested in a mixture with another compound)
> 100 µM

Dear colleague, I am looking for the recorded TGI of the following molecule: Nc1nc(Cl)cc(NCCC2(CO)CCC2)n1
> 100 µM

Dear colleague, I am looking for the recorded TGI of the following molecule: CSCCCNC(=O)c1csc(-c2csc(C(CNC(=O)OC(C)(C)C)CNC(=O)OC(C)(C)C)n2)n1
> 100 µM

Hi, could you look up TGI for each item in my list?
1. CN1C(=O)[C@@H]2[C@@H]3c4ccccc4N(S(=O)(=O)C(F)(F)F)[C@@H]3c3[nH]c4ccccc4c3[C@@H]2C1=O
2. Nc1[nH]c(=S)nc2snnc12
3. CC(C)[Si](OC1=CCC[C@H]2NC(=O)[C@@H](Cc3ccccc3)[C@@]12C)(C(C)C)C(C)C

1. > 100 µM
2. > 100 µM
3. 18.5 µM

Hi, could you look up TGI for each item in my list?
1. COc1ccc(-c2nc3ccccn3c2/C=C/C(=O)c2cc(OC)c(OC)c(OC)c2)cc1
2. Cc1cc(Cl)ccc1NC(=O)c1cc2ccccc2cc1O
3. C[C@@H](CO)[C@@H]1CCC=C2CC[C@]3(C)[C@H](CC[C@@H]4[C@@]5(C)CCCNC(C)(C)[C@@H]5CC[C@]43C)[C@H]21

["51.7 µM", "> 100 µM", "5.19 µM"]

Hi, could you look up TGI for each item in my list?
1. CCn1cc(C(=O)O)c(=O)c2cc3c(cc21)S(=O)(=O)CC3
2. CC[C@@H](C(=O)[C@@H](C)[C@@H](O)[C@H](C)[C@@H]1O[C@@H]([C@@H](CC)C(=O)N(CC)CC)CC[C@@H]1C)C1O[C@]2(C=CC(=O)[C@]3(CC[C@@](C)([C@H]4CC[C@](O)(CC)[C@H](C)O4)O3)O2)[C@H](C)C[C@@H]1C (stereo partly drawn)
3. CCOc1ccc(/C=N/[N+](C)(C)C)cc1OCC
4. c1cc(CNCCN2CCNCC2)ccn1
5. Brc1ccc2c([C@H]3CN[C@@H](c4c[nH]c5cc(Br)ccc45)CN3)c[nH]c2c1

> 100 µM
16.1 µM
> 10 µM
> 100 µM
25.2 µM

Hi, could you look up TGI for each item in my list?
1. Nc1nc(N)c2ncn(Cc3ccccc3CCl)c2n1
2. COc1ccc(/C=C2\CCC(CNc3ccc(OC)cc3)C2=O)cc1 (stereo not drawn)

["> 100 µM", "> 100 µM"]

* * *

Give TGI for every item shown.
System: HL-60(TB) leukemia
Assay: NCI tumour cell line growth inhibition, 48 h

Please review the following examples before continuing.
Any idea what TGI came out for Cc1c2cnccc2c(C)c2c1c1ccccc1n2CCCCCCNCc1ccccc1 on HL-60(TB) leukemia?
9.35 µM

Any idea what TGI came out for N#CCCC1(CCC#N)CCCCCCCCC(CCC#N)(CCC#N)C(=O)C1=O on HL-60(TB) leukemia?
> 100 µM

Any idea what TGI came out for CCOC(=O)c1c(N2CCCC2)[nH]c(=O)c(C(c2ccco2)c2c(O)c(C(=O)OCC)c(N3CCCC3)[nH]c2=O)c1O on HL-60(TB) leukemia?
> 100 µM

Any idea what TGI came out for CCOC(=O)c1ccc(C(=O)/C(C(C)=O)=C2\CCCN2C)n1C on HL-60(TB) leukemia?
64.2 µM

Any idea what TGI came out for COc1cc(C2C(C(=O)O)=C(COC(C)=O)Oc3cc4c(cc32)OCO4)cc(OC)c1OC (centres undefined) on HL-60(TB) leukemia?
> 100 µM

Hi, could you look up TGI for each item in my list?
1. CCOC(=O)C(Cl)(NC(=O)c1c(F)c(F)c(F)c(F)c1F)C(F)(F)F (centres undefined)
2. CS(=O)(=O)N(N(CCCl)S(=O)(=O)c1ccccc1)S(C)(=O)=O

1. > 100 µM
2. > 100 µM

Hi, could you look up TGI for each item in my list?
1. COc1ccc(C(SCCO)(c2ccccc2)c2ccccc2)cc1
2. COc1ccc(/C=c2\sc3n(c2=O)C(N)=C(C#N)C(c2ccc(OC)cc2)C=3c2nc3ccccc3[nH]2)cc1 (centres undefined)

67 µM
> 100 µM
